Protocol details: Pharmacokinetics of M6G at single and multiple intravenous doses in healthy volunteers
Assay type: in vivo, human
Cond: both sexes, human, plasma, intravenous, 15 mg/70 kg, multiple dose, Dose 5-15 mg; Geometric Mean; read-out: Cmax
Quantity measured: Cmax (ng/mL)
Record the value in ng/mL, omitting the unit from your answer.

Q) Which measured Cmax value corresponds to CN1CC[C@]23c4c5ccc(O)c4O[C@H]2[C@@H](OC2OC(C(=O)O)C(O)C(O)C2O)C=CC3[C@H]1C5 (stereo partly shown) [M6G] ?
A) 2290

###

Protocol details: Pharmacokinetics of M6G at single and multiple intravenous doses in healthy volunteers
Format: in vivo, human
Cond: both sexes, human, plasma, intravenous, 15 mg/70 kg, multiple dose, Dose 5-15 mg; Geometric Mean; read-out: Vss
Quantity measured: Vd (L)
Record the value in L, omitting the unit from your answer.

Q) Which measured Vd value corresponds to CN1CC[C@]23c4c5ccc(O)c4O[C@H]2[C@@H](OC2OC(C(=O)O)C(O)C(O)C2O)C=CC3[C@H]1C5 (stereo partly shown) ?
A) 11.9

###

Protocol details: Pharmacokinetics of M6G at single and multiple intravenous doses in healthy volunteers
Type: in vivo, human
Cond: both sexes, human, plasma, intravenous, 15 mg/70 kg, multiple dose, Dose 5-15 mg; Median; read-out: Vss
Quantity measured: Vd (L)
Record the value in L, omitting the unit from your answer.

Q) Which measured Vd value corresponds to CN1CC[C@]23c4c5ccc(O)c4O[C@H]2[C@@H](OC2OC(C(=O)O)C(O)C(O)C2O)C=CC3[C@H]1C5 (stereo partly shown) ?
A) 12.2

###

Protocol details: Pharmacokinetics of M6G at single and multiple intravenous doses in healthy volunteers
Type: in vivo, human
Cond: both sexes, human, plasma, intravenous, 15 mg/70 kg, multiple dose, Dose 1-15 mg; Median; read-out: Cmax
Quantity measured: Cmax (ng/mL)
Record the value in ng/mL, omitting the unit from your answer.

Q) Which measured Cmax value corresponds to CN1CC[C@]23c4c5ccc(O)c4O[C@H]2[C@@H](OC2OC(C(=O)O)C(O)C(O)C2O)C=CC3[C@H]1C5 (stereo partly shown) ?
A) 2090
